- Test system: Mycobacterium tuberculosis MTB CNCTC My 331/88
- Measurement description: In vitro antimycobacterial evaluation
- Format: cell-based
- Assay setup: 14h, IC90 value
Each item that follows carries a reported MIC.

{"Molecule": "O=C(N[C@H](Cc1ccccc1)C(=O)Nc1ccc(Cl)cc1)c1ccc(Cl)cc1O [9f]", "MIC (µM)": 32}
{"Molecule": "C[C@H](NC(=O)c1cc(Cl)ccc1O)C(=O)Nc1ccc(Cl)c(Cl)c1 [8n]", "MIC (µM)": 32}
{"Molecule": "O=C(N[C@H](Cc1ccccc1)C(=O)Nc1ccc(Cl)cc1)c1cc(Cl)ccc1O [8l]", "MIC (µM)": 16}
{"Molecule": "O=C(N[C@H](Cc1ccccc1)C(=O)Nc1ccc(Cl)c(Cl)c1)c1cc(Cl)ccc1O [8r]", "MIC (µM)": 125}
{"Molecule": "O=C(N[C@H](Cc1ccccc1)C(=O)Nc1ccc(Br)cc1)c1cc(Cl)ccc1O [8v]", "MIC (µM)": 32}
{"Molecule": "O=C(CNC(=O)c1cc(Cl)ccc1O)Nc1ccc(Cl)c(Cl)c1 [8m]", "MIC (µM)": 125}
{"Molecule": "O=C(N[C@@H](Cc1ccccc1)C(=O)Nc1cccc(Cl)c1)c1cc(Cl)ccc1O [8f]", "MIC (µM)": 62.5}
{"Molecule": "NNC(=O)c1ccncc1 [INH, isoniazid, reference compound]", "MIC (µM)": 0.5}
{"Molecule": "C[C@@H](NC(=O)c1ccc(Cl)cc1O)C(=O)Nc1ccc(Cl)cc1 [9b]", "MIC (µM)": 32}
{"Molecule": "CC(C)[C@H](NC(=O)c1cc(Cl)ccc1O)C(=O)Nc1cccc(Cl)c1 [8d]", "MIC (µM)": 32}
{"Molecule": "O=C(N[C@@H](Cc1ccccc1)C(=O)Nc1ccc(Cl)c(Cl)c1)c1cc(Cl)ccc1O [8q]", "MIC (µM)": 125}
{"Molecule": "C[C@@H](NC(=O)c1cc(Cl)ccc1O)C(=O)Nc1ccc(Cl)cc1 [8h]", "MIC (µM)": 8}
{"Molecule": "O=C(N[C@@H](Cc1ccccc1)C(=O)Nc1ccc(Cl)cc1)c1ccc(Cl)cc1O [9e]", "MIC (µM)": 32}
{"Molecule": "C[C@@H](NC(=O)c1cc(Cl)ccc1O)C(=O)Nc1cccc(Cl)c1 [8c]", "MIC (µM)": 62.5}
{"Molecule": "CC(C)[C@H](NC(=O)c1cc(Cl)ccc1O)C(=O)Nc1ccc(Cl)c(Cl)c1 [8o]", "MIC (µM)": 32}
{"Molecule": "O=C(N[C@@H](Cc1ccccc1)C(=O)Nc1ccc(Br)cc1)c1cc(Cl)ccc1O [8u]", "MIC (µM)": 32}
{"Molecule": "CC(C)[C@H](NC(=O)c1cc(Cl)ccc1O)C(=O)Nc1ccc(Cl)cc1 [8i]", "MIC (µM)": 32}
{"Molecule": "O=C(N[C@H](Cc1ccccc1)C(=O)Nc1cccc(Cl)c1)c1cc(Cl)ccc1O [8g]", "MIC (µM)": 62.5}
{"Molecule": "CC(C)[C@@H](NC(=O)c1ccc(Cl)cc1O)C(=O)Nc1ccc(Cl)cc1 [9d]", "MIC (µM)": 62.5}

---

Each item that follows carries a reported MIC.
- Test system: Mycobacterium avium MA CNCTC My 330/88
- Measurement description: In vitro antimycobacterial evaluation
- Assay type: cell-based
- Assay setup: 21h, IC90 value

{"Molecule": "C[C@@H](NC(=O)c1cc(Cl)ccc1O)C(=O)Nc1cccc(Cl)c1 [8c]", "Prefix operator": "=", "MIC, µM": 250}
{"Molecule": "CC(C)[C@H](NC(=O)c1cc(Cl)ccc1O)C(=O)Nc1ccc(Br)cc1 [8s]", "Prefix operator": "=", "MIC, µM": 62.5}
{"Molecule": "O=C(N[C@@H](Cc1ccccc1)C(=O)Nc1ccc(Cl)cc1)c1ccc(Cl)cc1O [9e]", "Prefix operator": "=", "MIC, µM": 62.5}
{"Molecule": "CC(C)[C@@H](NC(=O)c1cc(Cl)ccc1O)C(=O)Nc1ccc(Cl)c(Cl)c1 [8p]", "Prefix operator": "=", "MIC, µM": 125}
{"Molecule": "C[C@H](NC(=O)c1cc(Cl)ccc1O)C(=O)Nc1cccc(Cl)c1 [8b]", "Prefix operator": ">", "MIC, µM": 500}
{"Molecule": "CC(C)[C@@H](NC(=O)c1cc(Cl)ccc1O)C(=O)Nc1ccc(Br)cc1 [8t]", "Prefix operator": "=", "MIC, µM": 62.5}
{"Molecule": "C[C@H](NC(=O)c1ccc(Cl)cc1O)C(=O)Nc1ccc(Cl)cc1 [9a]", "Prefix operator": "=", "MIC, µM": 125}
{"Molecule": "CC(C)[C@@H](NC(=O)c1cc(Cl)ccc1O)C(=O)Nc1cccc(Cl)c1 [8e]", "Prefix operator": "=", "MIC, µM": 125}
{"Molecule": "O=C(N[C@@H](Cc1ccccc1)C(=O)Nc1ccc(Cl)cc1)c1cc(Cl)ccc1O [8k]", "Prefix operator": "=", "MIC, µM": 32}
